Below is a list of entries, each paired with its recorded pIC50 value.
# Subject Of Test: RON (human) (Homo sapiens, UniProt Q04912)
# Sequence (Q04912 25-1400): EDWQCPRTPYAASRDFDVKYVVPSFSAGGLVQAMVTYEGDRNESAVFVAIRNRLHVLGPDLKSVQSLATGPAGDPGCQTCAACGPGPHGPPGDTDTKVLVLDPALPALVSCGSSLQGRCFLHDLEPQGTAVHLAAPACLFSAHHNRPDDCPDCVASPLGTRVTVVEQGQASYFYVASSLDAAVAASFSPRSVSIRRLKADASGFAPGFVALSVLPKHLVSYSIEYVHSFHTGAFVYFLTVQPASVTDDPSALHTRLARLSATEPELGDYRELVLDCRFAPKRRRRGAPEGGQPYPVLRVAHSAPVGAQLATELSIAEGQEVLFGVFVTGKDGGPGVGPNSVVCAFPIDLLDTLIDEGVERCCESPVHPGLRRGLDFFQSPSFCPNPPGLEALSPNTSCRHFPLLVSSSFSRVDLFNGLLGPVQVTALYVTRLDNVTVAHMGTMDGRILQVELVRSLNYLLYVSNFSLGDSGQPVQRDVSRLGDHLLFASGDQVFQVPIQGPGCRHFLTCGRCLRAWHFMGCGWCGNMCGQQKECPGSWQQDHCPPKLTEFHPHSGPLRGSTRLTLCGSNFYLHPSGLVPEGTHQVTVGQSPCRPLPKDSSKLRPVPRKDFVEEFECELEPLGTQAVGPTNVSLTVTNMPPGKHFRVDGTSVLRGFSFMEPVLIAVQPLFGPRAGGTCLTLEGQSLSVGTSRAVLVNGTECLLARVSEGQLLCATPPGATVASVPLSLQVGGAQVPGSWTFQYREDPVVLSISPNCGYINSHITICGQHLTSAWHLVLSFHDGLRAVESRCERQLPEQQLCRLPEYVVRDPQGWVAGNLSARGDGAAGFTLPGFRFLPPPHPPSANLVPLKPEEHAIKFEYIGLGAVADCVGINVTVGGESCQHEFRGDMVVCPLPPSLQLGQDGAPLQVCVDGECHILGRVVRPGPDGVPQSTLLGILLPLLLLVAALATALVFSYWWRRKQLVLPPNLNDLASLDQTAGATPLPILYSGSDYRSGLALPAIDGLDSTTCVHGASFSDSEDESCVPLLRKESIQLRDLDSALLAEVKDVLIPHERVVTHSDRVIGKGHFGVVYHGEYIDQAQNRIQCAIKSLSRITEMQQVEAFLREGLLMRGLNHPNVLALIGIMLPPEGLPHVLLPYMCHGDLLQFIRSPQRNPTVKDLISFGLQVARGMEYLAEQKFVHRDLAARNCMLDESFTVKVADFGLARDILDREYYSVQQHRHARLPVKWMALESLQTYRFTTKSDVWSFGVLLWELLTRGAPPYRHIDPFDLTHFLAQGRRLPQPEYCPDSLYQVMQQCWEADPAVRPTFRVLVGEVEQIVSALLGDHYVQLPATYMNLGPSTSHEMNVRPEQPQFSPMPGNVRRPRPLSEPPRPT
# Assay Protocol: RON (human) AlphaScreen kinase assay, Km of ATP
# Type: biochemical
# Reported Conditions: AlphaScreen, Km of ATP; read-out: RON biochemical IC50
pIC50: −log10 of the molar value.

Compound: C[C@@H](Oc1c(N)ncc2c(-c3cnn(C4CCN(S(C)(=O)=O)CC4)c3)coc12)c1c(Cl)ccc(F)c1Cl
pIC50: 5.30 to 6.30

Compound: CC(Oc1c(N)ncc2c(-c3cnn(C4CCNCC4)c3)coc12)c1cccc(Br)c1 (stereo not drawn)
pIC50: 5.30 to 6.30

Compound: C[C@@H](Oc1c(N)ncc2c(-c3cc(C(=O)NC(C)(C)C)cs3)coc12)c1c(Cl)ccc(F)c1Cl
pIC50: 4.70 to 5.30

Compound: C[C@@H](Oc1c(N)ncc2c(-c3cncnc3)coc12)c1c(Cl)ccc(F)c1Cl
pIC50: 5.30 to 6.30

Compound: CCN1CC=C(c2coc3c(O[C@H](C)c4c(Cl)ccc(F)c4Cl)c(N)ncc23)CC1
pIC50: > 6.30

Compound: C[C@@H](Oc1c(N)ncc2c(Br)coc12)c1c(Cl)ccc(F)c1Cl
pIC50: 4.70 to 5.30

Compound: Cc1ccnc(C)c1C(C)Oc1c(N)ncc2c(-c3cnn(C4CCNCC4)c3)coc12 (stereo not drawn)
pIC50: 5.30 to 6.30

Compound: CC(Cc1cccc(F)c1)Oc1c(N)ncc2c(-c3cnn(C4CCNCC4)c3)coc12 (stereo not drawn)
pIC50: 5.30 to 6.30

Compound: C[C@@H](Oc1c(N)ncc2c(C3=CCOCC3)coc12)c1c(Cl)ccc(F)c1Cl
pIC50: 5.30 to 6.30

Compound: CC(Oc1c(N)ncc2c(-c3cnn(C4CCNCC4)c3)coc12)c1cc(F)cc(-c2cnn(C)c2)c1 (stereo not drawn)
pIC50: 5.30 to 6.30

Compound: C[C@@H]1CN(C(=O)CN2CC=C(c3coc4c(O[C@H](C)c5c(Cl)ccc(F)c5Cl)c(N)ncc34)CC2)C[C@H](C)O1 (relative stereo)
pIC50: 5.30 to 6.30

Compound: CCN1CCN(C(=O)N2CC=C(c3coc4c(O[C@H](C)c5c(Cl)ccc(F)c5Cl)c(N)ncc34)CC2)CC1
pIC50: > 6.30

Compound: CNCC(=O)N1CC=C(c2coc3c(O[C@H](C)c4c(Cl)ccc(F)c4Cl)c(N)ncc23)CC1
pIC50: > 6.30

Compound: C[C@@H](Oc1c(N)ncc2c(C3=CCN(C(=O)[C@H]4CCCN4)CC3)coc12)c1c(Cl)ccc(F)c1Cl
pIC50: > 6.30

Compound: C[C@@H](Oc1c(N)ncc2c(C3=CCN(/C(=N\C#N)N(C)C)CC3)coc12)c1c(Cl)ccc(F)c1Cl
pIC50: 5.30 to 6.30

* * *

# Subject Of Test: UniProtKB P08581
# Assay Protocol: MET (human) AlphaScreen kinase assay, Km of ATP
# Assay type: biochemical
# Reported Conditions: AlphaScreen, Km of ATP; read-out: Met biochemical IC50
pIC50: −log10 of the molar value.

Compound: CC(Cc1cccc(Cl)c1)Oc1c(N)ncc2c(-c3cnn(C4CCNCC4)c3)coc12 (centres unmarked)
pIC50: > 6.30
--
Compound: COc1cccc(Cl)c1C(C)Oc1c(N)ncc2c(-c3cnn(C4CCNCC4)c3)coc12 (centres unmarked)
pIC50: > 6.30
--
Compound: C[C@@H](Oc1c(N)ncc2c(-c3ccc(C(=O)NCCN4CCCCC4)cc3)coc12)c1c(Cl)ccc(F)c1Cl
pIC50: > 6.30
--
Compound: C[C@@H](Oc1c(N)ncc2c(-c3ccc([N+](=O)[O-])nc3)coc12)c1c(Cl)ccc(F)c1Cl
pIC50: 5.30 to 6.30
--
Compound: CC(Oc1c(N)ncc2c(-c3cnn(C4CCNCC4)c3)coc12)c1cc(F)cc(-c2cn[nH]c2)c1 (centres unmarked)
pIC50: > 6.30
--
Compound: C=C(C)CC(Oc1c(N)ncc2c(-c3cnn(C4CCNCC4)c3)coc12)c1c(Cl)cccc1Cl (centres unmarked)
pIC50: 5.30 to 6.30
--
Compound: C[C@@H](Oc1c(N)ncc2c(-c3ccc(C(=O)N(C)C)cc3)coc12)c1c(Cl)ccc(F)c1Cl
pIC50: > 6.30
--
Compound: CCCN1CC=C(c2coc3c(O[C@H](C)c4c(Cl)ccc(F)c4Cl)c(N)ncc23)CC1
pIC50: > 6.30
--
Compound: CNC(=O)c1cccc(-c2coc3c(O[C@H](C)c4c(Cl)ccc(F)c4Cl)c(N)ncc23)c1
pIC50: 5.30 to 6.30
--
Compound: C[C@@H](Oc1c(N)ncc2c(C(=O)NCC3CCOCC3)coc12)c1c(Cl)ccc(F)c1Cl
pIC50: 5.30 to 6.30
--
Compound: C[C@@H](Oc1c(N)ncc2c(C(=O)NC3CCN(C)CC3)coc12)c1c(Cl)ccc(F)c1Cl
pIC50: > 6.30
--
Compound: C[C@@H](Oc1c(N)ncc2c(C3=CCN(C(=O)[C@@H](O)c4ccccc4)CC3)coc12)c1c(Cl)ccc(F)c1Cl
pIC50: 5.30 to 6.30
--
Compound: C[C@@H](Oc1c(N)ncc2c(-c3ccc(CO)nc3)coc12)c1c(Cl)ccc(F)c1Cl
pIC50: > 6.30
--
Compound: COc1cccc(-c2coc3c(O[C@H](C)c4c(Cl)ccc(F)c4Cl)c(N)ncc23)c1
pIC50: 5.30 to 6.30
--
Compound: CC(Cc1c(Cl)cccc1Cl)Oc1c(N)ncc2c(-c3cnn(C4CCNCC4)c3)coc12 (centres unmarked)
pIC50: 5.30 to 6.30
--
Compound: C[C@H](O)C(=O)N1CC=C(c2coc3c(O[C@H](C)c4c(Cl)ccc(F)c4Cl)c(N)ncc23)CC1
pIC50: > 6.30
--
Compound: C[C@@H](Oc1c(N)ncc2c(C3=CCN(C(=O)[C@@H]4C[C@@H](F)CN4)CC3)coc12)c1c(Cl)ccc(F)c1Cl
pIC50: > 6.30
--
Compound: CCNC(=O)N1CC=C(c2coc3c(O[C@H](C)c4c(Cl)ccc(F)c4Cl)c(N)ncc23)CC1
pIC50: > 6.30
--
Compound: CCNC(=O)N1CCC(n2cc(-c3coc4c(O[C@H](C)c5c(Cl)ccc(F)c5Cl)c(N)ncc34)cn2)CC1
pIC50: 5.30 to 6.30
--
Compound: C[C@@H](Oc1c(N)ncc2c(-c3ccc(C(=O)NCCN4CCCC4)cc3)coc12)c1c(Cl)ccc(F)c1Cl
pIC50: > 6.30
--
Compound: C[C@@H]1CN(C(=O)N2CC=C(c3coc4c(O[C@H](C)c5c(Cl)ccc(F)c5Cl)c(N)ncc34)CC2)C[C@H](C)N1C (relative stereo)
pIC50: > 6.30
--
Compound: C[C@@H](Oc1c(N)ncc2c(C(=O)N(C)C)coc12)c1c(Cl)ccc(F)c1Cl
pIC50: 5.30 to 6.30
--
Compound: C[C@@H](Oc1c(N)ncc2c(C3=CCN(S(=O)(=O)c4ccccc4)CC3)coc12)c1c(Cl)ccc(F)c1Cl
pIC50: 5.30 to 6.30
--
Compound: C[C@@H](Oc1c(N)ncc2c(-c3cccc(C(=O)NCCN(C)C)c3)coc12)c1c(Cl)ccc(F)c1Cl
pIC50: > 6.30
--
Compound: C[C@@H](Oc1c(N)ncc2c(-c3ccc(C(=O)N4CCN(CCOCCO)CC4)cc3)coc12)c1c(Cl)ccc(F)c1Cl
pIC50: 5.30 to 6.30
--
Compound: C[C@@H](Oc1c(N)ncc2c(C(=O)NC(C)(C)C)coc12)c1c(Cl)ccc(F)c1Cl
pIC50: 5.30 to 6.30
--
Compound: C[C@@H](Oc1c(N)ncc2c(-c3cccc(NS(=O)(=O)c4cccs4)c3)coc12)c1c(Cl)ccc(F)c1Cl
pIC50: 5.30 to 6.30
--
Compound: C[C@@H](Oc1c(N)ncc2c(C3=CCN(C(=O)[C@@H](N)c4ccccc4)CC3)coc12)c1c(Cl)ccc(F)c1Cl
pIC50: > 6.30
--
Compound: CC(Oc1c(N)ncc2c(C3=CCN(C(N)=O)CC3)coc12)c1c(Cl)ccc(F)c1Cl (centres unmarked)
pIC50: > 6.30

* * *

# Subject Of Test: MET (human) (Homo sapiens)
# Sequence (P08581 25-1390): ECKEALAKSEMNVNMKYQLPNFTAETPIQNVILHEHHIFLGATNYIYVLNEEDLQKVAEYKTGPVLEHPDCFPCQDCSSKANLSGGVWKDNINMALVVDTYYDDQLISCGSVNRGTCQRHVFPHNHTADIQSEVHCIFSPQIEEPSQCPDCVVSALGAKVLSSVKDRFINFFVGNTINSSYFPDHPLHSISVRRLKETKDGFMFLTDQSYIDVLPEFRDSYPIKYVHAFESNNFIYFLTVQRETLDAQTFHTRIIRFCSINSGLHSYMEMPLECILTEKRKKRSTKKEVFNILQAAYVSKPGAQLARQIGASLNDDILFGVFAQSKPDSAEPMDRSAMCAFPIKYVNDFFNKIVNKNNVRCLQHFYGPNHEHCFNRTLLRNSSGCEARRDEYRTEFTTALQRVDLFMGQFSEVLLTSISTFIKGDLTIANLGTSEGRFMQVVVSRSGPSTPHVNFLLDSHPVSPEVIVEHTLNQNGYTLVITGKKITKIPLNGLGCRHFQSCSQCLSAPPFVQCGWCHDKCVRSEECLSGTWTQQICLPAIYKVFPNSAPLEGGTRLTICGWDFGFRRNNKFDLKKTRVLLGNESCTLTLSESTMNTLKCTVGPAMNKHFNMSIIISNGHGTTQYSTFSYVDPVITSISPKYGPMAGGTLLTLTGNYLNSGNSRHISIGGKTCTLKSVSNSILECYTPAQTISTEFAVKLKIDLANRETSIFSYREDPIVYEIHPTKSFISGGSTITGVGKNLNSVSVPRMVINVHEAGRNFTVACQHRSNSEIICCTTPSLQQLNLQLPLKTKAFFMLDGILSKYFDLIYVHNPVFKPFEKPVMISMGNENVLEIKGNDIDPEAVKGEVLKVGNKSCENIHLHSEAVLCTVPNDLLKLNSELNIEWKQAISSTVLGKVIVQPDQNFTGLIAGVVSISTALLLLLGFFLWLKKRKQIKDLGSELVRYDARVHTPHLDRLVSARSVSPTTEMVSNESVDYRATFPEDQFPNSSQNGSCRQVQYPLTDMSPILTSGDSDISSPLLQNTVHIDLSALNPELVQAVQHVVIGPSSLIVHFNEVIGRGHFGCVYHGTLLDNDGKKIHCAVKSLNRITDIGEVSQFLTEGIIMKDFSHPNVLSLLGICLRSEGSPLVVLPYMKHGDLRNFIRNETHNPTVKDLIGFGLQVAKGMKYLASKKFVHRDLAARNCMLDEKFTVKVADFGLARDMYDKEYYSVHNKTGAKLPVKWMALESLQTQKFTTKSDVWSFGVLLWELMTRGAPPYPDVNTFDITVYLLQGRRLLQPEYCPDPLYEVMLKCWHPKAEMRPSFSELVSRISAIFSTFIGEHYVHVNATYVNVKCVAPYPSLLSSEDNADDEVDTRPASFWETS
# Assay Protocol: MET (human) AlphaScreen kinase assay, Km of ATP
# Format: biochemical
# Reported Conditions: AlphaScreen, Km of ATP; read-out: Met biochemical IC50
# Experimental: Someone skilled in the art will appreciate that a variety of assay formats may be used to determine the activity of the compounds of this invention. For example, AlphaScreen (Amplified Luminescent Proximity Homogeneous Assay) technology was used with the kinases described below. […] Desired compound is added in a final concentration of 1% DMSO with control being vehicle of DMSO alone. […] The plates, incubated for 1 h, are read on an AlphaQuest plate reader
Measurement Label: IC50

Compound: Cn1c(Cc2ccccc2)ncc(-c2ccc(COc3c(N)ncc4c(Br)coc34)cc2)c1=O
Observed Result: 500 to 5000 nM
//
Compound: C[C@@H](Oc1c(N)ncc2c(-c3cnn(C4CCNCC4)c3)c(Br)oc12)c1c(Cl)ccc(F)c1Cl
Observed Result: < 500 nM
//
Compound: C[C@@H](Oc1c(N)ncc2c(C3=CCN(C4CN(C(N)=O)C4)CC3)coc12)c1c(Cl)ccc(F)c1Cl
Observed Result: < 500 nM
//
Compound: CC(Oc1c(N)ncc2c(-c3cnn(C4CCNCC4)c3)coc12)c1cc(F)cc(-c2ccccc2)c1 (stereo not drawn)
Observed Result: 500 to 5000 nM
//
Compound: C[C@H](Oc1c(N)ncc2c(-c3cnn(C4CCNCC4)c3)coc12)c1nnc2ccc(-c3cnn(C)c3)nn12
Observed Result: 500 to 5000 nM
//
Compound: Nc1ncc2c(-c3cnn(C4CCNCC4)c3)coc2c1O[C@@H](c1ccccc1)C(F)(F)F
Observed Result: < 500 nM
//
Compound: CC(C)NC(=O)c1csc(-c2coc3c(O[C@H](C)c4c(Cl)ccc(F)c4Cl)c(N)ncc23)c1
Observed Result: 5000 to 20000 nM
//
Compound: C[C@@H](Oc1c(N)ncc2c(-c3ccc(CN4CCCC4)s3)coc12)c1c(Cl)ccc(F)c1Cl
Observed Result: < 500 nM
//
Compound: C[C@@H](Oc1c(N)ncc2ccoc12)c1nnc2ccc(-c3ccccc3)nn12
Observed Result: 5000 to 20000 nM
//
Compound: CC(Oc1c(N)ncc2c(-c3cnn(C4CCNCC4)c3)coc12)c1ccc(Br)cc1 (stereo not drawn)
Observed Result: < 500 nM
//
Compound: Nc1ncc2c(-c3cnn(C4CCNCC4)c3)coc2c1O[C@H]1CCC[C@H]1c1cccc(F)c1
Observed Result: 500 to 5000 nM
//
Compound: CC(Oc1c(N)ncc2c(-c3cnn(C4CCNCC4)c3)coc12)c1cc(F)cc(Br)c1 (stereo not drawn)
Observed Result: < 500 nM
//
Compound: C[C@@H](Oc1c(N)ncc2c(-c3cnn(C4CCN(C=O)CC4)c3)coc12)c1c(Cl)ccc(F)c1Cl
Observed Result: 500 to 5000 nM
//
Compound: CC(Oc1c(N)ncc2c(-c3cnn(C4CCNCC4)c3)coc12)c1ccc(C(N)=O)cc1 (stereo not drawn)
Observed Result: 500 to 5000 nM
//
Compound: C[C@@H](Oc1c(N)ncc2c(-c3ccc(NCCN4CCOCC4)nc3)coc12)c1c(Cl)ccc(F)c1Cl
Observed Result: < 500 nM
